Kindly supply the reported SPOT peptide array binding signal intensity values for the records listed here.
Molecular target: SpBzz1-D1
Assay: SPOT peptide array binding signal intensity (averaged, normalized) (arbitrary units (background-subtracted, floor 0; scale differs between SH3 domains)); higher = stronger binding of the SH3 domain to the peptide
Field format: numeric only.

# input Name the reported SPOT peptide array binding signal intensity value associated with the binder VNFRRIPTGPDSPPT
# output 50

# input Name the reported SPOT peptide array binding signal intensity value associated with the binder SKAKRPKFLLDLQIK
# output 346

# input Name the reported SPOT peptide array binding signal intensity value associated with the binder LLIRWLILMPLVGSR
# output 300

# input Name the reported SPOT peptide array binding signal intensity value associated with the binder ALKQKKIPPPFKPHL
# output 288

# input Name the reported SPOT peptide array binding signal intensity value associated with the binder NRPAIRIPSLKKPAL
# output 92

# input Name the reported SPOT peptide array binding signal intensity value associated with the binder ERPKRRAPPPVPKKP
# output 1460

# input Name the reported SPOT peptide array binding signal intensity value associated with the binder NENKKLPPAPTVFGL
# output 126

# input Name the reported SPOT peptide array binding signal intensity value associated with the binder IRMPSNPALPKKLLN
# output 700

# input Name the reported SPOT peptide array binding signal intensity value associated with the binder KTKQQKPAIPQKKSF
# output 256

# input Name the reported SPOT peptide array binding signal intensity value associated with the binder DKSRPPRPPPKPLHL
# output 684

# input Name the reported SPOT peptide array binding signal intensity value associated with the binder KWVRRPKLMTPLTFS
# output 176

# input Name the reported SPOT peptide array binding signal intensity value associated with the binder KKAPPPVVKPKPRNF
# output 318

# input Name the reported SPOT peptide array binding signal intensity value associated with the binder QPQRTAPKPPISAPR
# output 260

# input Name the reported SPOT peptide array binding signal intensity value associated with the binder LTRRFPFLFPFDTRM
# output 53.5

# input Name the reported SPOT peptide array binding signal intensity value associated with the binder NFFRKKLGIPRKLKR
# output 50

# input Name the reported SPOT peptide array binding signal intensity value associated with the binder VQKRKLPLPGSIASA
# output 232

# input Name the reported SPOT peptide array binding signal intensity value associated with the binder QQNRPLPQLPNRNNR
# output 450

# input Name the reported SPOT peptide array binding signal intensity value associated with the binder RMVRRRPLRVQFSAR
# output 224

# input Name the reported SPOT peptide array binding signal intensity value associated with the binder APKREAPKPPANTSP
# output 86

# input Name the reported SPOT peptide array binding signal intensity value associated with the binder RRGPAPPPPPRASRP
# output 1820
